- Assay system: Sodium-dependent dopamine transporter (Rattus norvegicus, UniProt P23977)
- Sequence (P23977 whole entry): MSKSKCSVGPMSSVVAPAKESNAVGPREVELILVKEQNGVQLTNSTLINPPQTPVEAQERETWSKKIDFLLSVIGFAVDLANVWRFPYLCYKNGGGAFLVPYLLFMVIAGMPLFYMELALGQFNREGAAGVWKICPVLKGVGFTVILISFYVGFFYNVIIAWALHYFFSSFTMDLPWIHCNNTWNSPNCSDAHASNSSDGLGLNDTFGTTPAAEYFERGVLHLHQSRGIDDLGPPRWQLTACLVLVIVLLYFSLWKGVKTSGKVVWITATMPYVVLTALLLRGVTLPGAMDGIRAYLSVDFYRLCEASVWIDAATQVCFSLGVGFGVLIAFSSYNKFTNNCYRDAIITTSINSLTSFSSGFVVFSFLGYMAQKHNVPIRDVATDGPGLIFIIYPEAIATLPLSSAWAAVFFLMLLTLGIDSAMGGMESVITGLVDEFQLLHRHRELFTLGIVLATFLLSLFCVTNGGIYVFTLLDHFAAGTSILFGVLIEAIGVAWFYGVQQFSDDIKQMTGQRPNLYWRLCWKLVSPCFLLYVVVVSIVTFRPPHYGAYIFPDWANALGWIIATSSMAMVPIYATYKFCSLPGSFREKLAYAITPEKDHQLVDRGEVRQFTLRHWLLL
- Assay summary: Binding affinity for dopamine transporter was determined in rat striatal membrane
- Assay type: cell membranes, Striatum
Response field label: string, one of Y (Ki strictly below 500 nM) or N.

Would you kindly verify if Ki of OC(CCCN1C2CCC1CC(c1ccccc1)C2)c1ccc(F)cc1 (stereo not given) is strictly less than 500 nM? Y

Determine whether this compound shows Ki lower than 500 nM (ties excluded): OC(CN1C2CCC1CC(c1ccccc1)C2)c1ccccc1 (stereo not given) Y

Say whether its Ki is strictly beneath 500 nM. Entry: OC(Cc1ccc(Br)cc1)CN1C2CCC1CC(c1ccccc1)C2 (stereo not given) Y

Does the reported Ki of the following compound sit strictly below 500 nM? O[C@H]1Cc2ccccc2C[C@@H]1N1C2CCC1CC(c1ccccc1)C2 (stereo not given in full) N

Here's an entry: O[C@H]1CCCC[C@@H]1N1C2CCC1CC(c1ccccc1)C2 (stereo not given in full) . Is its Ki below 500 nM? N

====

Reported Ki values for the following compounds.
- Assay system: Sodium-dependent dopamine transporter (Rattus norvegicus)
- Assay summary: Binding affinity for dopamine transporter was determined in rat striatal membrane.
- Format: cell membranes
Write it as a number; the unit nM goes unstated.

Check out these entries, answers already filled in.
Compound	Assay system	Measurement unit	Ki
OC(CN1C2CCC1CC(c1ccccc1)C2)c1ccc(Br)cc1 (centres undefined)	Sodium-dependent dopamine transporter (Rattus norvegicus)	nM	73.8
OC(CN1C2CCC1CC(c1ccccc1)C2)c1cccc(Br)c1 (centres undefined)	Sodium-dependent dopamine transporter (Rattus norvegicus)	nM	23.6
OC(CN1C2CCC1CC(c1ccccc1)C2)c1ccccc1Br (centres undefined)	Sodium-dependent dopamine transporter (Rattus norvegicus)	nM	67.2
O[C@H]1CCN(Cc2ccc(F)cc2)C[C@@H]1N1C2CCC1CC(c1ccccc1)C2 (some centres undefined)	Sodium-dependent dopamine transporter (Rattus norvegicus)	nM	4180

What measured Ki goes with O[C@H]1CCN(Cc2cccc(I)c2)C[C@@H]1N1C2CCC1CC(c1ccccc1)C2 (some centres undefined) ? 1070

For OC(CN1C2CCC1CC(c1ccccc1)C2)c1c(Cl)cccc1Cl (centres undefined) , what is its reported Ki? 42

So what's the measured Ki for this one? O=C(CN1C2CCC1CC(c1ccccc1)C2)c1ccc(F)cc1 (centres undefined) 222

Look at this compound and give its reported Ki. O=C(CCCN1C2CCC1CC(c1ccccc1)C2)c1ccc(F)cc1 (centres undefined) 129

Given the entry OC(CN1C2CCC1CC(c1ccccc1)C2)c1ccc(Cl)c(Cl)c1 (centres undefined) , report its measured Ki. 23.6
